Values from patent US20210324028A1

I'd appreciate it if you could supply pKd values for the items below.
Target: T1, human IL-15Rα (human, UniProt Q13261 31-205, limits assumed)
T1 construct: also called hIL-15Rα; IL-15 receptor alpha
T1 sequence (Q13261 31-205 limits assumed): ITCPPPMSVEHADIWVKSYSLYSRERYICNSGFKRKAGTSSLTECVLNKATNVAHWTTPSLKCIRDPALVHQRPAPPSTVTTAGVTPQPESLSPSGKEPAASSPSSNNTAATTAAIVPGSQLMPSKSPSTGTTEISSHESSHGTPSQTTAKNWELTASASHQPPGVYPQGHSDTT
Assay: SPR, steady state
Answers are plain numbers, as −log10 of the molar value.

- binder: "hIL-15 V49R/N65A (ligand) NWVNVISDLKKIEDLIQSMHIDATLYTESDVHPSCKVTAMKCFLLELQRISLESGDASIHDTVEALIILANNSLSSNGNVTESGCKECEELEEKNIKEFLQSFVHIVQMFINTGGGGSGHHHHHHHHGGGLNDIFEAQKIEWHE"
  pKd: 6.69
- binder: "hIL-15 V49R/L69R (ligand) NWVNVISDLKKIEDLIQSMHIDATLYTESDVHPSCKVTAMKCFLLELQRISLESGDASIHDTVENLIIRANNSLSSNGNVTESGCKECEELEEKNIKEFLQSFVHIVQMFINTGGGGSGHHHHHHHHGGGLNDIFEAQKIEWHE"
  pKd: 6.95
- binder: "hIL-15 V49R/S7G (ligand) NWVNVIGDLKKIEDLIQSMHIDATLYTESDVHPSCKVTAMKCFLLELQRISLESGDASIHDTVENLIILANNSLSSNGNVTESGCKECEELEEKNIKEFLQSFVHIVQMFINTGGGGSGHHHHHHHHGGGLNDIFEAQKIEWHE"
  pKd: 6.83

Consider the additional binder presented here.
GET /values?readout=pKd&item= hIL-15 V49R/I68S (ligand) NWVNVISDLKKIEDLIQSMHIDATLYTESDVHPSCKVTAMKCFLLELQRISLESGDASIHDTVENLISLANNSLSSNGNVTESGCKECEELEEKNIKEFLQSFVHIVQMFINTGGGGSGHHHHHHHHGGGLNDIFEAQKIEWHE
6.98
